# measured.on: recombinant homotrimeric HA A/common magpie/Hong Kong/5052/07 H5N1 (Influenza A virus A/common magpie/Hong Kong/5052/2007(H5N1))
# measurement.protocol: protein microarray, purified IgG, trimeric HA
# assay.conditions: remark: other sources report otherwise
Trimeric HA Binding: RLU values for the binders below.
Field format: number, assumed RLU, no unit text.

Example entries and their recorded answers appear below.
binder	val
TCN-534 (5249_B02) (antibody, V domains shown) VH: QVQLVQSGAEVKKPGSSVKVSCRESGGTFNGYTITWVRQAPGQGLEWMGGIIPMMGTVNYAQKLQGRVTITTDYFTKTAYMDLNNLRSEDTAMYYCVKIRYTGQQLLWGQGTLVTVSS VL: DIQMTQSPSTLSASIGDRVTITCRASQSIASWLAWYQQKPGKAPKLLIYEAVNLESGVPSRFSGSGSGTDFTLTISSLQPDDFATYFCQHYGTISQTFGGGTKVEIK	16500
TCN-545 (5082_I15) (antibody, V domains shown) VH: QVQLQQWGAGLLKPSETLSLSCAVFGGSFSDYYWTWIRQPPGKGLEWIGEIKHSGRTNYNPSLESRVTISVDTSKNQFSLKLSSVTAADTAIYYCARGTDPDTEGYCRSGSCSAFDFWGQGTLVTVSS VL: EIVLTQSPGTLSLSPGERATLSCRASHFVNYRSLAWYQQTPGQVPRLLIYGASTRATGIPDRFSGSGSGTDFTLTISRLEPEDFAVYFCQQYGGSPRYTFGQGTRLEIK	804

Now for another entry.
Form field Trimeric HA Binding: RLU, entry TCN-522 (3212_I12) (antibody, V domains shown) VH: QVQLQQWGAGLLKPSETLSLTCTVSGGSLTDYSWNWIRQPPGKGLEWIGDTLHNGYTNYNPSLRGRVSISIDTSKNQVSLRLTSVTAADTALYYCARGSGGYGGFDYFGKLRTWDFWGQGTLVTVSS VL: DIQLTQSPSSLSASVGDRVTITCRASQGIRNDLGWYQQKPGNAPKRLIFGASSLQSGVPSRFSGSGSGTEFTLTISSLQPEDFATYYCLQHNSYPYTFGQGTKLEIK : 15100
